- ASSAY COMMENT: cn = amount concentration of the nth substance listed, in mol/dm3
- CONDITION DESCRIPTION: 318.15 K; 101.3 kPa; Liquid; Vibrating tube method; c1 = 3
REPORTED ENDPOINT: mass density (kg/m3)

- MOLECULE: "[Cl-].[K+] [potassium chloride] + O"
  REPORTED ENDPOINT: "mass density"
  RECORDED RESULT: 1113.28
- MOLECULE: "[Cl-].[Na+] [sodium chloride] + O"
  REPORTED ENDPOINT: "mass density"
  RECORDED RESULT: 1098.06
- MOLECULE: "CC(=O)[O-].[K+] [potassium ethanoate] + O"
  REPORTED ENDPOINT: "mass density"
  RECORDED RESULT: 1115.71
- MOLECULE: "[Br-].[K+] [potassium bromide] + O"
  REPORTED ENDPOINT: "mass density"
  RECORDED RESULT: 1226.19

Source of measurements: the NIST ThermoML archive (doi:10.1016/j.jct.2008.12.011)
